- TARGET SYSTEM: PIM1 serine/threonine kinase (Homo sapiens, UniProt P11309)
- Sequence (P11309 whole entry): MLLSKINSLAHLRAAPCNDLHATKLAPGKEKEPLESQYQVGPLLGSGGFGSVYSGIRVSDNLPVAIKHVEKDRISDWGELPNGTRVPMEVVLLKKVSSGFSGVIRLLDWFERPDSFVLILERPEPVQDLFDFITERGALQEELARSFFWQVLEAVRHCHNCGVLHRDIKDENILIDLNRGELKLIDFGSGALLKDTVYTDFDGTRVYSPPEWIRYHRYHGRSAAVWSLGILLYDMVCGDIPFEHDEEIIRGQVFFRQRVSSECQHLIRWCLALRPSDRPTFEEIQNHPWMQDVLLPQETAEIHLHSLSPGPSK
- TEST PROTOCOL: PIM1 serine/threonine kinase inhibitory effect
- TEST CONDITIONS: PIM1 serine/threonine kinase activity; ATP 40 μM; 30° C., 30 minutes
Counter-ions that a name gives are not always drawn.
Consider the cut-off 20 nM. If the recorded IC50 is strictly smaller, the label is Met; if not, the label is Not met.

>>> class_label("C[C@H](Nc1cc(-c2n[nH]c(=O)o2)cc(C(F)(F)F)c1Cl)[C@H]1C[C@@H](N)C1 [Example 183, hydrochloride]")
"Met"
>>> class_label("C[C@H](Nc1cc(-c2n[nH]c(=O)o2)cc(Cl)c1Cl)[C@H]1CC[C@H](N)CC1 [Example 174, hydrochloride]")
"Met"
>>> class_label("C[C@H](Nc1cc(-c2n[nH]c(=O)o2)ccc1C(F)(F)F)[C@H]1CC[C@H](NCCO)CC1 [Example 201, hydrochloride]")
"Met"
>>> class_label("O=c1[nH]nc(-c2ccc(C(F)(F)F)c(NC[C@H]3CC[C@H](CO)CC3)c2)o1")
"Not met"
>>> class_label("N[C@H]1CC[C@H](CCNc2cc(-c3n[nH]c(=O)o3)ccc2C(F)(F)F)CC1 [Example 117, hydrochloride]")
"Not met"
>>> class_label("O=c1[nH]nc(-c2ccc(C(F)(F)F)c(N[C@H](C3CCNCC3)C(F)(F)F)c2)o1 [Example 146, hydrochloride]")
"Met"
>>> class_label("NC1CCN(c2cc(-c3n[nH]c(=O)o3)ccc2C(F)(F)F)CC1 [Example 9, hydrochloride]")
"Not met"
>>> class_label("C[C@H](Nc1cc(-c2n[nH]c(=O)o2)cc(F)c1C(F)(F)F)C1(C)CCNCC1")
"Met"
>>> class_label("CC[C@@H]1CNCC[C@@H]1[C@H](C)Nc1cc(-c2n[nH]c(=O)o2)cc(F)c1C")
"Met"
>>> class_label("CN(Cc1cc(-c2n[nH]c(=O)o2)ccc1Cl)C1CCNCC1 [Example 205, dihydrochloride]")
"Not met"
>>> class_label("O=c1[nH]nc(-c2ccc(C(F)(F)F)c(N[C@@H]3CCC34CCNCC4)c2)o1 [Example 46, hydrochloride]")
"Not met"
>>> class_label("N[C@H]1CO[C@H](CCc2cc(-c3n[nH]c(=O)o3)ccc2C(F)(F)F)OC1 [Example 28, hydrochloride]")
"Not met"
>>> class_label("C[C@H](Nc1cc(-c2n[nH]c(=O)o2)cc(Cl)c1Cl)C1CCNCC1 [Example 79, dihydrochloride]")
"Met"
>>> class_label("CC1(CNc2cc(-c3n[nH]c(=O)o3)ccc2C(F)(F)F)CCNCC1 [Example 57, hydrochloride]")
"Met"

---

Measured IC50, listed per entry for reference.
- TARGET SYSTEM: PIM1 serine/threonine kinase (Homo sapiens, UniProt P11309)
- TEST PROTOCOL: PIM1 serine/threonine kinase inhibitory effect
- TEST CONDITIONS: PIM1 serine/threonine kinase activity; ATP 40 μM; 30° C., 30 minutes
Where a name gives a salt, the structure may show the parent alone.
METRIC NAME: IC50 (nM)

>>> value_measured("CN[C@H]1C[C@@H]([C@H](C)Nc2cc(-c3n[nH]c(=O)o3)cc(F)c2OC(F)(F)F)C1")
8.5
>>> value_measured("C[C@H](Nc1nc(-c2n[nH]c(=O)o2)ccc1C(F)(F)F)C1CCNCC1 [Example 114, hydrochloride hydrochloride]")
8.4
>>> value_measured("NCCCNc1cc(-c2n[nH]c(=O)o2)ccc1C(F)(F)F")
27
>>> value_measured("O=c1[nH]nc(-c2cc(F)c(C(F)(F)F)c(N[C@@H](CF)C3CCNCC3)c2)o1 [Example 160, hydrochloride]")
1.2
>>> value_measured("CC(Nc1cc(-c2n[nH]c(=O)o2)ccc1C(F)(F)F)[C@H]1CC[C@H](N)CC1 (some centres unmarked) [Example 63, hydrochloride]")
0.7
>>> value_measured("NC(=O)[C@H]1CC[C@H](CNc2cc(-c3n[nH]c(=O)o3)ccc2C(F)(F)F)CC1")
120
>>> value_measured("C[C@H](Nc1cc(-c2n[nH]c(=O)o2)ccc1C(F)(F)F)[C@@H]1CC[C@@H](N)CO1")
2.9
>>> value_measured("CC(C)(CN)C1CCN(c2cc(-c3n[nH]c(=O)o3)ccc2C(F)(F)F)CC1")
30
